Can you tell me Papp A→B at 120 min, 10 µM for the items I'm about to list?
# test name: Permeability assessment using Caco-2 cells
# Format: in vitro ADME, human
# condition parameters: human, Caco-2, Caco-2, 10 µM, 120 min, 37 °C, HBSS + 1%BSA; read-out: Mean Papp A to B
Please answer using a numeric value trailed by its unit.

Papp A→B at 120 min, 10 µM for CN1CCN(c2ccc(C(=O)Nc3n[nH]c4ncc(S(=O)(=O)c5cccc(F)c5)cc34)cc2)CC1 [10g] ?
2.56 ×10⁻⁶ cm/s

Moving on to the next molecule: CC(C)NCC(O)COc1cccc2ccccc12 (stereo not drawn) [Propranolol]
16.1 ×10⁻⁶ cm/s

Consider next the molecule C[C@H]1O[C@@H](O[C@H]2[C@@H](O)C[C@H](O[C@H]3[C@@H](O)C[C@H](O[C@H]4CC[C@@]5(C)[C@H](CC[C@@H]6[C@@H]5C[C@@H](O)[C@]5(C)[C@@H](C7=CC(=O)OC7)CC[C@]65O)C4)O[C@@H]3C)O[C@@H]2C)C[C@H](O)[C@@H]1O [Digoxin] in the same way.
0.43 ×10⁻⁶ cm/s

====

# assay system: c-Src (Homo sapiens)
# Sequence (P12931 whole entry): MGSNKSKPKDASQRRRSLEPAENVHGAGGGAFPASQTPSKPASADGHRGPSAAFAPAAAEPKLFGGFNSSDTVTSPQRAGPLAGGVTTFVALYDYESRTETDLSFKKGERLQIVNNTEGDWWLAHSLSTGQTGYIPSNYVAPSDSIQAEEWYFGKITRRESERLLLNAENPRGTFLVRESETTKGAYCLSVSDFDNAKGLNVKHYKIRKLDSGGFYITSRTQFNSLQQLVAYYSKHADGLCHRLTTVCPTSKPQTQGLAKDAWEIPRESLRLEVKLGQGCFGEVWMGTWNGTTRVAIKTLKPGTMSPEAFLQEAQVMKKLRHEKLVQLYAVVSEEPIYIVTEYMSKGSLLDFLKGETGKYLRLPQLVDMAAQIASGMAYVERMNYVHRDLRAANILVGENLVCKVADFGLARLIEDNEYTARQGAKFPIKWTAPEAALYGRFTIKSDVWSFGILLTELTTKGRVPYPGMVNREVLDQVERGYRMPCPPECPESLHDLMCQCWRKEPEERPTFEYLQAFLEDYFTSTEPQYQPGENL
property label: pIC50
Remember the convention: pIC50 equals -log10 of concentration in molar.

pIC50 for CN1CCN(c2ccc(C(=O)Nc3n[nH]c4ncc(S(=O)(=O)c5cccc(F)c5)cc34)cc2)CC1 [10g] ?
8.15

====

# assay system: ALK-C1156Y (Homo sapiens, UniProt Q9UM73, C1156Y)
# Sequence (Q9UM73 19-1620 C1156Y): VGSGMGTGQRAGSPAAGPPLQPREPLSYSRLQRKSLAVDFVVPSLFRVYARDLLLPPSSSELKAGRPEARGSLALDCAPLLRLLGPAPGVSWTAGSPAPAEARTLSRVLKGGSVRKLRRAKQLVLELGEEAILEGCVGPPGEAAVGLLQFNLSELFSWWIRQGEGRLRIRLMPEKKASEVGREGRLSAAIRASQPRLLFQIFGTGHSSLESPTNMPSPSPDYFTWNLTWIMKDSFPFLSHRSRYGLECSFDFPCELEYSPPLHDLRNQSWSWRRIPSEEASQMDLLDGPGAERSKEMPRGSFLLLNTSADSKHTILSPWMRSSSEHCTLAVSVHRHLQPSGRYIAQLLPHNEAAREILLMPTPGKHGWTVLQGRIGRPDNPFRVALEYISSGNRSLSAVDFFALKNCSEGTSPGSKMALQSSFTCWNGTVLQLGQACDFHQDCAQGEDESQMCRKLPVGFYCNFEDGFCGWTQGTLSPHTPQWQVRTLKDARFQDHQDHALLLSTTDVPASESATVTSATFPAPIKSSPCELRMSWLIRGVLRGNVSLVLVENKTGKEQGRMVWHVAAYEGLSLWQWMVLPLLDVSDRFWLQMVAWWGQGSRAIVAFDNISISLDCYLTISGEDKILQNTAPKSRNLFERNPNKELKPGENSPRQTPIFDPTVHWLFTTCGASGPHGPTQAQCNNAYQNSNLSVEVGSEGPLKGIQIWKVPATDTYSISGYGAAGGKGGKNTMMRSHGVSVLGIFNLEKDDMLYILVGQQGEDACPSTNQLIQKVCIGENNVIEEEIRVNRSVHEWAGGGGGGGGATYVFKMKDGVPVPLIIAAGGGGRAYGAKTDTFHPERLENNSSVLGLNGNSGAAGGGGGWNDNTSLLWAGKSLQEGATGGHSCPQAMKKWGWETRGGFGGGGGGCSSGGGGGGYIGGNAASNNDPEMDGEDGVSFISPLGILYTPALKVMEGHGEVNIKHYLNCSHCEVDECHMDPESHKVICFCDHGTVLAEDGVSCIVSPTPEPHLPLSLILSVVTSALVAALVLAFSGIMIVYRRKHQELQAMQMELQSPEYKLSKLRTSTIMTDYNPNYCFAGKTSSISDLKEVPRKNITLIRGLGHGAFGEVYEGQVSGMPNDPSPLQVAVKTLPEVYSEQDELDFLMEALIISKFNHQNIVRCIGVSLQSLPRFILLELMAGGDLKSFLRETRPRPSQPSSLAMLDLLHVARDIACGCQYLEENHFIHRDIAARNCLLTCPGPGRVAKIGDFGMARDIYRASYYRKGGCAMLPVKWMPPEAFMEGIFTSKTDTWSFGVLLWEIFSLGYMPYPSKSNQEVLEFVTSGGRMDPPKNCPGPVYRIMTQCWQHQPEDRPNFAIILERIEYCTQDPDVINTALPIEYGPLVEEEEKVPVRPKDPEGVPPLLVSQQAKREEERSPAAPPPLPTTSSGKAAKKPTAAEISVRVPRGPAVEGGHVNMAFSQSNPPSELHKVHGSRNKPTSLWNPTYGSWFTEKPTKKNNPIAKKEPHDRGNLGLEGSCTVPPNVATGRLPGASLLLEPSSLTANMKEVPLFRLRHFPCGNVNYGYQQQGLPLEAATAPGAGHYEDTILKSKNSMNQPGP
# test name: Radiometric biochemical kinase assay, ALK-C1156Y
property label: pIC50
A value of pIC50 is the negative decimal logarithm of a concentration given in moles per litre.

Look at this molecule and give its reported pIC50. CN1CCN(c2ccc(C(=O)Nc3n[nH]c4ncc(S(=O)(=O)c5cccc(F)c5)cc34)cc2)CC1 [10g]
8.74

====

# test name: Permeability assessment using Caco-2 cells
# Format: in vitro ADME, human
# condition parameters: human; Caco-2, 10 µM, 120 min
Exercise: for every item that follows, state its recorded efflux ratio at 120 min, 10 µM.
Write no unit; give the number alone.

Field request: efflux ratio at 120 min, 10 µM | item: CN1CCN(c2ccc(C(=O)Nc3n[nH]c4ncc(S(=O)(=O)c5cccc(F)c5)cc34)cc2)CC1 [10g]
1.85

# iterate: CC(C)NCC(O)COc1cccc2ccccc12 (stereo not drawn)
0.52

`C[C@H]1O[C@@H](O[C@H]2[C@@H](O)C[C@H](O[C@H]3[C@@H](O)C[C@H](O[C@H]4CC[C@@]5(C)[C@H](CC[C@@H]6[C@@H]5C[C@@H](O)[C@]5(C)[C@@H](C7=CC(=O)OC7)CC[C@]65O)C4)O[C@@H]3C)O[C@@H]2C)C[C@H](O)[C@@H]1O` ?
20.2

====

Field: log10 GI50. Provide a value for each of the compounds that follow.
# Tested on: ALK wt-TEL Ba/F3 cells
# test name: Anti-proliferation assay (CTG), ALK wt-TEL Ba/F3
# Format: cell-based
# condition parameters: Mus musculus, BaF3; 72 h, CTG; mean ± SD of three independent experiments; read-out: GI50 Ba/F3 cell lines ALK wt-TEL
// stored as log10 of GI50 expressed in nM

# get_value(readout='log10 GI50', item= CN(C)c1ccc(C(=O)Nc2n[nH]c3ncc(S(=O)(=O)c4cccc(F)c4)cc23)cc1 [10e] )
3.25

Okay, and CN1CCN(c2ccc(C(=O)Nc3n[nH]c4ncc(S(=O)(=O)c5cccc(F)c5)cc34)cc2)CC1 [10g] ?
2.31

Try O=C(Nc1n[nH]c2ncc(S(=O)(=O)c3cccc(F)c3)cc12)c1ccc(N2CCOCC2)cc1 [10f] next.
2.96

Also need CN1CCN(c2cccc(C(=O)Nc3n[nH]c4ncc(S(=O)(=O)c5cccc(F)c5)cc34)c2)CC1 [10h] , thanks.
3.53

Continue with `Nc1ccc(C(=O)Nc2n[nH]c3ncc(S(=O)(=O)c4cccc(F)c4)cc23)cc1`
3.59

One more compound: CS(=O)(=O)Nc1ccc(C(=O)Nc2n[nH]c3ncc(S(=O)(=O)c4cccc(F)c4)cc23)cc1 [13c]
3.67

====

# test name: Permeability assessment using Caco-2 cells
# Format: in vitro ADME, human
# condition parameters: human, Caco-2, Caco-2, 10 µM, 120 min; read-out: Mean recovery % B to A
# Procedure: Stock solutions (10 mM) of reference compounds and 10g were diluted to a concentration of 10 µM with the transport buffer (HBSS + 1%BSA) and the test compounds were applied to the apical or basolateral side of the cell monolayer. […] In addition, the efflux ratio of each compound was also determined. Reference compounds and 10g were quantified by LC-MS/MS analysis based on the peak area ratio of analyte/the internal standard.
Provide the reported recovery at 120 min, 10 µM of each item.

# lookup: recovery at 120 min, 10 µM of CC(C)NCC(O)COc1cccc2ccccc12 (stereo not drawn) [Propranolol]
91.7%

Follow-up item: CN1CCN(c2ccc(C(=O)Nc3n[nH]c4ncc(S(=O)(=O)c5cccc(F)c5)cc34)cc2)CC1 [10g]
92.3%

Then what about the compound C[C@H]1O[C@@H](O[C@H]2[C@@H](O)C[C@H](O[C@H]3[C@@H](O)C[C@H](O[C@H]4CC[C@@]5(C)[C@H](CC[C@@H]6[C@@H]5C[C@@H](O)[C@]5(C)[C@@H](C7=CC(=O)OC7)CC[C@]65O)C4)O[C@@H]3C)O[C@@H]2C)C[C@H](O)[C@@H]1O [Digoxin] ?
95.1%

====

# test name: Permeability assessment using Caco-2 cells
# Assay type: in vitro ADME, human
# condition parameters: human; Caco-2, 10 µM, 120 min, 37 °C, HBSS + 1%BSA
property label: Papp B→A at 120 min, 10 µM
Phrase the answer as number then unit, nothing more needed.

// Papp B→A at 120 min, 10 µM lookup, key: C[C@H]1O[C@@H](O[C@H]2[C@@H](O)C[C@H](O[C@H]3[C@@H](O)C[C@H](O[C@H]4CC[C@@]5(C)[C@H](CC[C@@H]6[C@@H]5C[C@@H](O)[C@]5(C)[C@@H](C7=CC(=O)OC7)CC[C@]65O)C4)O[C@@H]3C)O[C@@H]2C)C[C@H](O)[C@@H]1O [Digoxin]
8.6 ×10⁻⁶ cm/s

Repeat for the following compound: CC(C)NCC(O)COc1cccc2ccccc12 (stereo not drawn) [Propranolol]
8.42 ×10⁻⁶ cm/s

Item: CN1CCN(c2ccc(C(=O)Nc3n[nH]c4ncc(S(=O)(=O)c5cccc(F)c5)cc34)cc2)CC1 [10g]
4.74 ×10⁻⁶ cm/s

====

# assay system: UniProt P06213
# Sequence (P06213 28-1382): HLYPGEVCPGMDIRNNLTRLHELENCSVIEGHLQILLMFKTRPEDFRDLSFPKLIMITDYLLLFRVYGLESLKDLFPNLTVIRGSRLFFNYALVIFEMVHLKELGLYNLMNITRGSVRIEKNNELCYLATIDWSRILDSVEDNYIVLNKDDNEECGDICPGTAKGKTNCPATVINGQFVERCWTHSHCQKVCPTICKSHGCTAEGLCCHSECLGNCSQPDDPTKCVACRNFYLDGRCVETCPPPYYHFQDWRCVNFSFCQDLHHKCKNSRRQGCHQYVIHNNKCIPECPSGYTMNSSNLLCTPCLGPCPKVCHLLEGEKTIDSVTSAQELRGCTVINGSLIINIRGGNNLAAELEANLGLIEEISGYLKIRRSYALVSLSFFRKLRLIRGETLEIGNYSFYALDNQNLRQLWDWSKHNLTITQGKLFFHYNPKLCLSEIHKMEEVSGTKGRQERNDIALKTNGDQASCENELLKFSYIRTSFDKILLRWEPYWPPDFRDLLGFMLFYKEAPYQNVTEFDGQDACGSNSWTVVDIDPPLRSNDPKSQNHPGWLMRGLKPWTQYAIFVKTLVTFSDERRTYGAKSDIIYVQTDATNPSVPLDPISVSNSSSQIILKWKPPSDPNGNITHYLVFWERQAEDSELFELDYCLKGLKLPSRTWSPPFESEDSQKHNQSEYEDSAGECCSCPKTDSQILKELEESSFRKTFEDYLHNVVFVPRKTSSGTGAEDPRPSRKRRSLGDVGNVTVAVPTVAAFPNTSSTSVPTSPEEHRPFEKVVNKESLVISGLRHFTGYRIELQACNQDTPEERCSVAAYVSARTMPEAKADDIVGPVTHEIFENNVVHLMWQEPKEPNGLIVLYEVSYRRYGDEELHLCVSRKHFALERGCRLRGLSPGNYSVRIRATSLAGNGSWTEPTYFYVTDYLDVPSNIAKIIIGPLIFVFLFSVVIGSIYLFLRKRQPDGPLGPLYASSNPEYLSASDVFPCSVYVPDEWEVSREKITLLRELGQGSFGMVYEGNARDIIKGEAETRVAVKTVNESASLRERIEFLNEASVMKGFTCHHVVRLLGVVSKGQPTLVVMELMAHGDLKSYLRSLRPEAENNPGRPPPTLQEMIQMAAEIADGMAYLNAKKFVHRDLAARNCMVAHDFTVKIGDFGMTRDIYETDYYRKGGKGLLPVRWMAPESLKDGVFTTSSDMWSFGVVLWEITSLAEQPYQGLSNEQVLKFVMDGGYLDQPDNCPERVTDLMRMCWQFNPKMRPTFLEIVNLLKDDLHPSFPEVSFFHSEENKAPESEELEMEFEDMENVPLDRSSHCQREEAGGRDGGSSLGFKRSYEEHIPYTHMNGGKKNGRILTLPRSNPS
property label: IC50
Returns: string containing the number followed by the unit.

Look up IC50: CN1CCN(c2ccc(C(=O)Nc3n[nH]c4ncc(S(=O)(=O)c5cccc(F)c5)cc34)cc2)CC1 [10g]
404 nM

====

# assay system: ALK-L1196M (Homo sapiens, UniProt Q9UM73, L1196M)
# Sequence (Q9UM73 19-1620 L1196M): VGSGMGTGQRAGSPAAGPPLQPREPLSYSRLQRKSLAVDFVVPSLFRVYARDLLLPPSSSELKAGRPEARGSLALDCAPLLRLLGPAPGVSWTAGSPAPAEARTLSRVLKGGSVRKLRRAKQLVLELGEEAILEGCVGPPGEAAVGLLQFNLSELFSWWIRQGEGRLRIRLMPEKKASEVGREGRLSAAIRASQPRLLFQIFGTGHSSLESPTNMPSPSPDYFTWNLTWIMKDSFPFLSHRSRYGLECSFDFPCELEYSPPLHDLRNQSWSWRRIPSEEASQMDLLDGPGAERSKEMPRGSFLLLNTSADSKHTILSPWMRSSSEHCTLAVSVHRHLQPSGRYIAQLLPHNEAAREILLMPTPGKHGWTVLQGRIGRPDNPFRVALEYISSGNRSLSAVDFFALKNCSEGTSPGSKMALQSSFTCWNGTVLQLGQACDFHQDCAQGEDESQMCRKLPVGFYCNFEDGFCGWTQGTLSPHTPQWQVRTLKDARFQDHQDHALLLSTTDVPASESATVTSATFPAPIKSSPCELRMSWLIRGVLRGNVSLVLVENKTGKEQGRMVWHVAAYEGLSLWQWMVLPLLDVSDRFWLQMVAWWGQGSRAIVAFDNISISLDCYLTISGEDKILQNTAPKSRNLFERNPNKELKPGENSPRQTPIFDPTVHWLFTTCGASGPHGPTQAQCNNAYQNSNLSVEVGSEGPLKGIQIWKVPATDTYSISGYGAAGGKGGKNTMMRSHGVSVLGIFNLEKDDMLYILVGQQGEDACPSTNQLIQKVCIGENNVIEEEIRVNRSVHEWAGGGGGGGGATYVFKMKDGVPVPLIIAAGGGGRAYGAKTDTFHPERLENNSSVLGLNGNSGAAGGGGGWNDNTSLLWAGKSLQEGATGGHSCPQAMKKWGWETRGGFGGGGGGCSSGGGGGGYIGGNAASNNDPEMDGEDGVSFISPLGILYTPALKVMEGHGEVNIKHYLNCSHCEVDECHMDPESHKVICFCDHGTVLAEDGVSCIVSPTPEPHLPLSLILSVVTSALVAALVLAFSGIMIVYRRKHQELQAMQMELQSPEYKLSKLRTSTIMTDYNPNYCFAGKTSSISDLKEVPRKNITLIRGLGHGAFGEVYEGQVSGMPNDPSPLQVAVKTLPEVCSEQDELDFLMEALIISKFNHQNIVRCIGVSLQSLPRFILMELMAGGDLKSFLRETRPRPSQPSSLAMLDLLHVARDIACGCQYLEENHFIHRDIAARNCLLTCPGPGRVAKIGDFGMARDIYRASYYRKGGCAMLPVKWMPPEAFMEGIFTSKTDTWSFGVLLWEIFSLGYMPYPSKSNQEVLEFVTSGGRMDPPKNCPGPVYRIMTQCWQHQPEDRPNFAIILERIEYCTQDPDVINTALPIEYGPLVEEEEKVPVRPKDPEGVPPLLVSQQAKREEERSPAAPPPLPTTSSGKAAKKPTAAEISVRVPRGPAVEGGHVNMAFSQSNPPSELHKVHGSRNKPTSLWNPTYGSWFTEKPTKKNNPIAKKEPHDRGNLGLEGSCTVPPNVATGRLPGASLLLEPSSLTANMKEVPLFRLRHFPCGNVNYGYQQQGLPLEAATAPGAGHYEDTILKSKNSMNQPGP
# test name: Radiometric biochemical kinase assay, ALK-L1196M
# condition parameters: radiometric kinase assay, 10 µM ATP
Would you mind telling me the reported pIC50 of each entry?
The meaning of pIC50 here: minus log10 of the concentration in molar units.

Given O=C(Nc1n[nH]c2ncc(S(=O)(=O)c3cccc(F)c3)cc12)c1ccc(N2CCOCC2)cc1 [10f] , state its recorded pIC50.
8.85

Cool, now CN(C)c1ccc(C(=O)Nc2n[nH]c3ncc(S(=O)(=O)c4cccc(F)c4)cc23)cc1 [10e]
9.15

Note, next up: COc1ccc(C(=O)Nc2n[nH]c3ncc(S(=O)(=O)c4cccc(F)c4)cc23)cc1 [10d]
7.72

====

What Papp A→B at 120 min, 10 µM was measured for each of the following?
# test name: Permeability assessment using Caco-2 cells
# Format: in vitro ADME, human
# condition parameters: human, Caco-2, Caco-2 permeability class from Papp (A to B); read-out: Rank Papp

Sample CC(C)NCC(O)COc1cccc2ccccc12 (stereo not drawn) — what was its Papp A→B at 120 min, 10 µM?
> 10 ×10⁻⁶ cm/s

Then what about the molecule CN1CCN(c2ccc(C(=O)Nc3n[nH]c4ncc(S(=O)(=O)c5cccc(F)c5)cc34)cc2)CC1 [10g] ?
2.5 to 10 ×10⁻⁶ cm/s

Try this molecule next: `C[C@H]1O[C@@H](O[C@H]2[C@@H](O)C[C@H](O[C@H]3[C@@H](O)C[C@H](O[C@H]4CC[C@@]5(C)[C@H](CC[C@@H]6[C@@H]5C[C@@H](O)[C@]5(C)[C@@H](C7=CC(=O)OC7)CC[C@]65O)C4)O[C@@H]3C)O[C@@H]2C)C[C@H](O)[C@@H]1O`
< 2.5 ×10⁻⁶ cm/s

====

# test name: Permeability assessment using Caco-2 cells
# Type: in vitro ADME, human
# condition parameters: human, Caco-2, Caco-2, 10 µM, 120 min; read-out: Mean recovery % A to B
property label: recovery at 120 min, 10 µM (%)
Field: numeric (%). Do not append units.

Which recovery at 120 min, 10 µM value belongs to `C[C@H]1O[C@@H](O[C@H]2[C@@H](O)C[C@H](O[C@H]3[C@@H](O)C[C@H](O[C@H]4CC[C@@]5(C)[C@H](CC[C@@H]6[C@@H]5C[C@@H](O)[C@]5(C)[C@@H](C7=CC(=O)OC7)CC[C@]65O)C4)O[C@@H]3C)O[C@@H]2C)C[C@H](O)[C@@H]1O` ?
96.8

Entry to check: CN1CCN(c2ccc(C(=O)Nc3n[nH]c4ncc(S(=O)(=O)c5cccc(F)c5)cc34)cc2)CC1 [10g]
74.2

Next entry: CC(C)NCC(O)COc1cccc2ccccc12 (stereo not drawn)
84.8
